src = ChEMBL document CHEMBL1158479

test system: glutathione S-transferase; assay: Stability assessed as half life at pH 7.4 in presence of rat glutathione S-transferase in liver cytosol; assay type: physicochemical
quantity: half-life

[
  {
    "sample smiles": "Oc1ccc(SSc2ccc(O)cc2)cc1",
    "value measured": "< 1 min"
  }
]

###

system: glutathione S-transferase; experiment: Stability assessed as half life at pH 8 in presence of rat glutathione S-transferase; format: ADME
half-life listing for selected molecules.

[
  {
    "sample smiles": "CC(=O)/C=C\\Sc1ccc(O)cc1",
    "assay system": "glutathione S-transferase",
    "half-life [min]": 18.4
  },
  {
    "sample smiles": "CC(=O)/C=C/Sc1ccc(O)cc1",
    "assay system": "glutathione S-transferase",
    "half-life [min]": 6.1
  }
]
